# Tested on: 786-0 renal
# Procedure Summary: NCI tumour cell line growth inhibition, 48 h
Readout Name: TGI

In: Value lookup for TGI; key = Nc1cc2nc3ccccc3oc-2cc1=O
Out: > 83.4 µM

In: Would you kindly repeat that for C/C(=C1\C(=O)C(c2ccccc2)N(c2ccccc2)C1=O)c1ccc(Cl)cc1 (stereo unspecified) ?
Out: 38.6 µM

In: Same question, Cn1c2ccccc2c2nnc(NNCc3ccccn3)nc21 this time
Out: 4.51 µM

In: Can you check CC12CCC(O)CC1=CCC1C2CCC2(C)C(c3cccnc3)=CCC12 (stereo unspecified) next?
Out: > 100 µM

In: Follow-up item: Cc1cc2c(cc1C)[n+](Cc1ccc3ccccc3n1)cn2Cc1ccc2ccccc2n1
Out: 3.03 µM

In: Param item: CCCC#CCOC(=O)c1cc([N+](=O)[O-])cc([N+](=O)[O-])c1
Out: > 100 µM

In: Please give the result for O=[N+]([O-])c1ccc(COc2cccc3cccnc23)cc1 too.
Out: 90.6 µM

In: Please give the result for COc1ccc2[nH]c(O)c(/C=c3/ccc4c(c3)N=C(c3ccc(F)cc3)N=4)c2c1 too.
Out: 3.26 µM

In: Another molecule to check: CCc1ncnc2cc(OCC3CO3)c(OC)cc12 (stereo unspecified)
Out: 20.7 µM

In: Another: COC(=O)/C(=C\c1c(-c2ccccc2)[nH]c2ccccc12)S(C)(=O)=O
Out: 23.9 µM

In: Similarly, CC(=O)OCCOCCN1CCN(c2c(O)c3c(c(O)c2Cl)C(=O)C=CC3=O)CC1 ?
Out: 0.913 µM

----------
# System: MCF7 breast
# Procedure Summary: NCI tumour cell line growth inhibition, 48 h
Readout Name: TGI

In: Given O=P1(Oc2ccccc2)NCc2ncccc2O1 (stereo not given) , state its recorded TGI.
Out: > 100 µM

In: Follow-up item: Cn1c2ccccc2c2nnc(NNCc3ccccn3)nc21
Out: 14.5 µM

In: What about this compound? CCCCCCCCCCCCCCCCOc1ccc(/C=C/C2=[N+](CCCl)CCO2)cc1
Out: > 100 µM

In: Now consider COc1ccc(/C(=N/O)c2cc(OC)c(OC)c(OC)c2)c(OC)c1N and answer again.
Out: > 100 µM

In: For Cc1ccc(C)c(COCCOCn2c(=O)[nH]c(=O)c3cc(Br)ccc32)c1 then?
Out: > 100 µM

In: Repeat for the following compound: COc1cc(Nc2nc3ccccc3nc2C(C)C)cc(OC)c1OC
Out: > 100 µM

In: What would you report for CC(=O)NC1=C(Sc2ccc(Cl)cc2)C(=O)c2ccccc2C1=O ?
Out: 5.01 µM

In: Item: CC[C@H]1C=CCC[C@@]2(C[C@@H]3CC[C@@H]4[C@H](C(=O)OCCCCCCCCCCCCCCCC(=O)N(CCCNC(C)=O)C[C@H](CCNC(C)=O)OC(C)=O)[C@]5(CCC[C@@H](C)O5)NC(=[N+]34)N2)O1
Out: 1.37 µM

In: Same thing, different compound: CCN1C(=O)N(CC)C2C1NN=c1s/c(=C\c3cccc([N+](=O)[O-])c3)c(=O)n12 (stereo not given)
Out: > 100 µM

In: Next up: CN(C)CCNc1nc2ccccc2c2occc12
Out: > 100 µM

Data origin: PubChem BioAssay (NCI)
